# MIC per record follows
System: Streptococcus pneumoniae
Test: Antibacterial activity against erythromycin-sensitive Streptococcus pneumoniae 12-4 by broth microdilution method
Assay type: functional

# molecular_string, study_system, MIC [µg/mL]
rows = [
    ("CC[C@H]1OC(=O)[C@H](C)[C@@H](O[C@H]2C[C@@](C)(OC)[C@@H](O[C@@H]3O[C@H](C)[C@@H](OCc4ccccc4)[C@H](N(C)C)[C@H]3O)[C@H](C)O2)[C@H](C)[C@@H](O[C@@H]2O[C@H](C)C[C@H](N(C)C)[C@H]2O)[C@@](C)(OC)C[C@@H](C)C(=O)[C@H](C)[C@@H](O)[C@]1(C)O", "Streptococcus pneumoniae", 32),
    ("CC[C@H]1OC(=O)[C@H](C)[C@@H](O[C@H]2C[C@@](C)(OC)[C@@H](O[C@@H]3O[C@H](C)[C@@H](O)[C@H](N(C)C)[C@H]3OC(=O)c3ccccc3)[C@H](C)O2)[C@H](C)[C@@H](O[C@@H]2O[C@H](C)C[C@H](N(C)C)[C@H]2O)[C@@](C)(OC)C[C@@H](C)C(=O)[C@H](C)[C@@H](O)[C@]1(C)O", "Streptococcus pneumoniae", 32),
]
